All values here come from patent US20250144069A1.

- Tested on: A549 cells
- TEST PROTOCOL: Single-dose CCK-8 cell viability screening (adherent cells)
- Assay type: cell-based, human
- APPLIED CONDITIONS: Homo sapiens, A549, 48 h, A549 cells, 50 uM, 48 h, CCK-8; read-out: % Viability (50 uM, 48 h) A549

| SMILES STR | VALUE UNITS | viability at 50 µM |
| --- | --- | --- |
| COc1ccc(CN2C(=O)[C@H](OC(=O)c3ccccc3)[C@@]34[C@@H]2OC(=O)[C@@]32CC(=O)O[C@H]2C[C@@]4(O)C(C)(C)C)c(OC)c1 | % | 86.5 |
| CC(C)(C)OC(=O)N1CCC(CCN2C(=O)[C@H](OC(=O)c3ccccc3)[C@@]34[C@@H]2OC(=O)[C@@]32CC(=O)O[C@H]2C[C@@]4(O)C(C)(C)C)CC1 | % | 72.1 |
| CC(C)(C)[C@]1(O)C[C@@H]2OC(=O)C[C@@]23C(=O)O[C@@H]2N(c4cc(F)cc(F)c4)C(=O)[C@H](OC(=O)c4ccccc4)[C@]213 | % | 50.2 |
| COc1ccc(N2C(=O)[C@H](OC(=O)c3ccccc3)[C@@]34[C@@H]2OC(=O)[C@@]32CC(=O)O[C@H]2C[C@@]4(O)C(C)(C)C)cc1 | % | 68.7 |
| CC(C)(C)[C@]1(O)C[C@@H]2OC(=O)C[C@@]23C(=O)O[C@@H]2N(CC4COC4)C(=O)[C@H](OC(=O)c4ccccc4)[C@]213 | % | 101 |
| CC(C)(C)[C@]1(O)C[C@@H]2OC(=O)C[C@@]23C(=O)O[C@@H]2N(c4ccc(O)cc4)C(=O)[C@H](OC(=O)c4ccccc4)[C@]213 | % | 102 |

###

- System: A549 cells
- TEST PROTOCOL: Single-dose CCK-8 cell viability screening (adherent cells)
- Format: cell-based, human
- APPLIED CONDITIONS: Homo sapiens, A549, 48 h, A549 cells, 50 uM, 48 h, CCK-8; read-out: % Viability (50 uM, 48 h) A549
# maps each entry to its viability at 50 µM

| COMPOUND | viability at 50 µM, % |
| --- | --- |
| CC(C)(C)[C@]1(O)C[C@@H]2OC(=O)C[C@@]23C(=O)O[C@@H]2N(CC4CCN(C(=O)c5ccc6c(c5)OCCO6)CC4)C(=O)[C@H](OC(=O)c4ccccc4)[C@]213 | 87 |
| COc1cccc(N2C(=O)[C@H](OC(=O)c3ccccc3)[C@@]34[C@@H]2OC(=O)[C@@]32CC(=O)O[C@H]2C[C@@]4(O)C(C)(C)C)c1 | 53.7 |
| CC(C)(C)OC(=O)N1CCC(CCCN2C(=O)[C@H](OC(=O)c3ccccc3)[C@@]34[C@@H]2OC(=O)[C@@]32CC(=O)O[C@H]2C[C@@]4(O)C(C)(C)C)CC1 | 100 |
| CC(C)(C)[C@]1(O)C[C@@H]2OC(=O)C[C@@]23C(=O)O[C@@H]2N(c4ccc(N)cc4)C(=O)[C@H](OC(=O)c4ccccc4)[C@]213 | 95 |
| CC(C)(C)[C@]1(O)C[C@@H]2OC(=O)C[C@@]23C(=O)O[C@@H]2N(c4ccc(Cl)c(Cl)c4)C(=O)[C@H](OC(=O)c4ccccc4)[C@]213 | 56.5 |
| CC(=O)O[C@H]1C(=O)NC(N)=N[C@H]2OC(=O)[C@]34CC(=O)O[C@H]3C=C(C(C)(C)C)[C@@]214 | 66.5 |
| CC(=O)Nc1ccc(N2C(=O)[C@H](OC(=O)c3ccccc3)[C@@]34[C@@H]2OC(=O)[C@@]32CC(=O)O[C@H]2C[C@@]4(O)C(C)(C)C)cc1 | 66.9 |
| CC(C)(C)[C@]1(O)C[C@@H]2OC(=O)C[C@@]23C(=O)O[C@@H]2N(CC4CC4)C(=O)[C@H](OC(=O)c4ccccc4)[C@]213 | 107 |
| CC(C)(C)[C@]1(O)C[C@@H]2OC(=O)C[C@@]23C(=O)O[C@@H]2N(CCN4CCNCC4)C(=O)C(OC(=O)c4ccccc4)[C@]213 (stereo in doubt) | 88.8 |
| CC(C)(C)[C@]1(O)C[C@@H]2OC(=O)C[C@@]23C(=O)O[C@@H]2N(CC4CCC4)C(=O)[C@H](OC(=O)c4ccccc4)[C@]213 | 93.5 |
| Cc1ccc(N2C(=O)[C@H](OC(=O)c3ccccc3)[C@@]34[C@@H]2OC(=O)[C@@]32CC(=O)O[C@H]2C[C@@]4(O)C(C)(C)C)cc1 | 56.9 |
| CC(C)(C)[C@]1(O)C[C@@H]2OC(=O)C[C@@]23C(=O)O[C@@H]2N(c4ccc(C(F)(F)F)cc4)C(=O)[C@H](OC(=O)c4ccccc4)[C@]213 | 46.7 |
| CC(C)(C)[C@]1(O)C[C@@H]2OC(=O)C[C@@]23C(=O)O[C@@H]2N(c4ccc(C#N)cc4)C(=O)[C@H](OC(=O)c4ccccc4)[C@]213 | 75.2 |
| CC(=O)O[C@H]1C(=O)N(CC2CCN(C(=O)OC(C)(C)C)CC2)[C@H]2OC(=O)[C@]34CC(=O)O[C@H]3C=C(C(C)(C)C)[C@@]214 | 108 |

###

- System: Jurkat cells
- TEST PROTOCOL: Single-dose CCK-8 cell viability screening (suspension cells)
- Format: cell-based, human
- APPLIED CONDITIONS: Homo sapiens, Jurkat, 48 h, read-out: % Viability (50 uM, 48 h) Jurkat
As shown below, each of these molecules has a reported viability at 50 µM value.

| MOLECULE | viability at 50 µM [%] |
| --- | --- |
| CC(C)(C)[C@]1(O)C[C@@H]2OC(=O)C[C@@]23C(=O)O[C@@H]2N(C45CC(C4)C5)C(=O)[C@H](OC(=O)c4ccccc4)[C@]213 [DW172] | 94.4 |
| CC(C)(C)[C@]1(O)C[C@@H]2OC(=O)C[C@@]23C(=O)O[C@@H]2NC(=O)[C@H](OC(=O)c4ccccc4)[C@]213 [XBB-004] | 95 |
| C=C(C)[C@@]1(C)C[C@@H]2OC(=O)C[C@@]23C(=O)O[C@@H]2OC(=O)[C@H](OC(C)=O)[C@]213 [XBB-009] | 107 |
| CC(C)(C)[C@]1(O)C[C@@H]2OC(=O)C[C@@]23C(=O)O[C@@H]2N(c4cccnc4)C(=O)[C@H](OC(=O)c4ccccc4)[C@]213 [XBB-040] | 98.4 |
| CC(C)(C)[C@]1(O)C[C@@H]2OC(=O)C[C@@]23C(=O)O[C@@H]2N(c4ccccc4)C(=O)[C@H](O)[C@]213 [JW116] | 105 |
| C=C(C)[C@@]1(C)C[C@@H]2OC(=O)C[C@@]23C(=O)O[C@@H]2NC(=O)[C@H](O)[C@]213 [XBB-013] | 107 |

###

- Test system: A549 cells
- TEST PROTOCOL: Single-dose CCK-8 cell viability screening (adherent cells)
- Format: cell-based, human
- APPLIED CONDITIONS: Homo sapiens, A549, 48 h, A549 cells, 50 uM, 48 h, CCK-8; read-out: % Viability (50 uM, 48 h) A549

| MOLECULE | viability at 50 µM / % |
| --- | --- |
| Cc1ccccc1N1C(=O)[C@H](OC(=O)c2ccccc2)[C@@]23[C@@H]1OC(=O)[C@@]21CC(=O)O[C@H]1C[C@@]3(O)C(C)(C)C | 80.2 |
| Cc1c(CCN2C(=O)[C@H](OC(=O)c3ccccc3)[C@@]34[C@@H]2OC(=O)[C@@]32CC(=O)O[C@H]2C[C@@]4(O)C(C)(C)C)[nH]c2ccccc12 | 96.1 |
| CC(C)(C)[C@]1(O)C[C@@H]2OC(=O)C[C@@]23C(=O)O[C@@H]2N(CC4C5CC6CC(C5)CC4C6)C(=O)[C@H](OC(=O)c4ccccc4)[C@]213 (some centres unmarked) | 53 |
| COc1ccccc1N1C(=O)[C@H](OC(=O)c2ccccc2)[C@@]23[C@@H]1OC(=O)[C@@]21CC(=O)O[C@H]1C[C@@]3(O)C(C)(C)C | 87.2 |
| Cc1cccc(N2C(=O)[C@H](OC(=O)c3ccccc3)[C@@]34[C@@H]2OC(=O)[C@@]32CC(=O)O[C@H]2C[C@@]4(O)C(C)(C)C)c1 | 61.1 |
| CC(C)(C)[C@]1(O)C[C@@H]2OC(=O)C[C@@]23C(=O)O[C@@H]2N(c4ccc(N5CCOCC5)cc4)C(=O)[C@H](OC(=O)c4ccccc4)[C@]213 | 95.3 |
| CC(C)(C)[C@]1(O)C[C@@H]2OC(=O)C[C@@]23C(=O)O[C@@H]2N(c4ccc5c(c4)OCO5)C(=O)[C@H](OC(=O)c4ccccc4)[C@]213 | 78.4 |
| CN1C(=O)[C@H](OC(=O)c2ccccc2)[C@@]23[C@@H]1OC(=O)[C@@]21CC(=O)O[C@H]1C[C@@]3(O)C(C)(C)C | 105 |
| C=C(C)[C@@]1(C)C[C@@H]2OC(=O)C[C@@]23C(=O)O[C@@H]2N(c4ccccc4)NC(=O)[C@H](OC(C)=O)[C@]213 | 67.4 |
| CC(C)(C)[C@]1(O)C[C@@H]2OC(=O)C[C@@]23C(=O)O[C@@H]2N(Cc4ccccc4)C(=O)[C@H](OC(=O)c4ccccc4)[C@]213 | 105 |
| CC(C)(C)OC(=O)Nc1ccc(N2C(=O)[C@H](OC(=O)c3ccccc3)[C@@]34[C@@H]2OC(=O)[C@@]32CC(=O)O[C@H]2C[C@@]4(O)C(C)(C)C)cc1 | 52.4 |
